System: Pseudomonas aeruginosa 36a
Type: cell-based
Conditions: 36a
Where a SMILES comes first, the peptide text is derived from it. Bridges are numbered along the chain shown (N, C = ends). [ ]: non-standard residue; d: D form. The star is where a group is joined. ξ: configuration not given here. dAoc(2) = CCCCCC[C@@H](N)C(=O)O; ξLac(3-iPr) = CC(C)CC(O)C(=O)O; Heptanoyl = CCCCCCC(=O)*; Nle = CCCC[C@H](N)C(=O)O; Dab = NCC[C@H](N)C(=O)O
# MIC values compiled below

Exam item: Specify MIC for CCCCCCC(=O)N[C@@H](Cc1c[nH]cn1)C(=O)N[C@H](C(=O)N[C@@H](CCN)C(=O)N[C@H]1CSSC[C@H](C(N)=O)NC(=O)[C@H](Cc2c[nH]cn2)NC(=O)[C@H](CCN)NC(=O)[C@H](CCCC)NC(=O)[C@@H](CCCCCC)NC(=O)[C@H](CCN)NC1=O)[C@@H](C)O [Example 6] (Heptanoyl-HT[Dab]C[Dab][dAoc(2)][Nle][Dab]H[dC]-NH2; disulfide 4-10) and stop.
Marked response: 1 µg/mL

Exam item: # return recorded MIC for entry CCCCCCC(=O)N[C@@H](CCN)C(=O)N[C@H](C(=O)N[C@@H](CCN)C(=O)N[C@H]1CSSC[C@H](C(N)=O)NC(=O)[C@H](CCN)NC(=O)[C@H](CCN)NC(=O)C(CC(C)C)OC(=O)[C@@H](CCCCCC)NC(=O)[C@H](CCN)NC1=O)[C@@H](C)O (stereo partly shown) [Example 2] (Heptanoyl-[Dab]T[Dab]C[Dab][dAoc(2)][ξLac(3-iPr)][Dab][Dab][dC]-NH2; disulfide 4-10)
Marked response: 1 µg/mL

Exam item: Name the recorded MIC of the compound listed here: CCCCCCC(=O)N[C@@H](CCN)C(=O)N[C@H](C(=O)N[C@@H](CCN)C(=O)N[C@H]1CSSC[C@H](C(N)=O)NC(=O)[C@H](CCN)NC(=O)[C@H](CCN)NC(=O)[C@H](CCCC)NC(=O)[C@@H](CCCCCC)NC(=O)[C@H](CCN)NC1=O)[C@@H](C)O [Example 1] (Heptanoyl-[Dab]T[Dab]C[Dab][dAoc(2)][Nle][Dab][Dab][dC]-NH2; disulfide 4-10)
Marked response: 0.06 µg/mL

Exam item: Please give the documented MIC of CCCCCC[C@@H](N)C(=O)N[C@H](C(=O)N[C@@H](CCN)C(=O)N[C@H]1CSSC[C@H](C(N)=O)NC(=O)[C@H](CCN)NC(=O)[C@H](CCN)NC(=O)C(CC(C)C)OC(=O)[C@@H](CCCCCC)NC(=O)[C@H](CCN)NC1=O)[C@@H](C)O (stereo partly shown) [Example 3] (H-[dAoc(2)]T[Dab]C[Dab][dAoc(2)][ξLac(3-iPr)][Dab][Dab][dC]-NH2; disulfide 4-10)
Marked response: 0.5 µg/mL
